These measurements were taken from PubChem BioAssay AID256.

Test system: CD2F1 mice, L1210 leukemia ip, survival T/C
Experiment Summary: NCI In Vivo Anticancer Drug Screen. Data for tumor model L1210 Leukemia (intraperitoneal) in CD2F1 (CDF1) mice
Condition: endpoint: mean survival time; dose: 100.0 mg/kg/injection; schedule: Q04DX002 (ip); vehicle: saline with Tween-80; higher = longer survival
Procedure: The antitumor activity of compounds was measured in mice bearing transplantable tumors. Survival or tumor size were measured and the results are expressed as the measurement made in the treated group (T) divided by the measurement made in the vehicle treated control group (C). The tumor model used in this assay is L1210 Leukemia (intraperitoneal) in CD2F1 (CDF1) mice
Toxic doses and inconclusive results are not listed.
Each entry below carries its reported T/C.

Compound	T/C
COc1ccc2c(O)c(C)c(=O)n(C)c2c1	96 % of control
Cc1ccccc1NC(=O)Oc1ccc(Cl)cc1C	101 % of control
CC(=O)OC1(c2ccccc2)CC(=O)C=C1c1ccccc1 (stereo not drawn)	87 % of control

###

System: CD2F1 mice, L1210 leukemia ip, survival T/C
Experiment Summary: NCI In Vivo Anticancer Drug Screen. Data for tumor model L1210 Leukemia (intraperitoneal) in CD2F1 (CDF1) mice
Condition: endpoint: mean survival time; dose: 200.0 mg/kg/injection; schedule: Q01DX009 (ip); vehicle: saline with Tween-80; higher = longer survival
Inconclusive results and toxic doses are left out.

Compound	T/C
BrC1c2cccc3cccc(c23)C1Br (stereo unspecified)	110 % of control
CCCN1CSC(=S)N(Cc2ccccc2)C1	97 % of control
CC(=O)C(C(C)=O)C(c1ccccc1Cl)C(C(C)=O)C(C)=O	102 % of control
CCN(CC)CC(C)(C)CO	98 % of control
O=S(=O)(Oc1ccc(OS(=O)(=O)c2ccccc2)cc1)c1ccccc1	98 % of control
CC(C)(CO)C(O)C(=O)NC1CCCCC1 (stereo unspecified)	100 % of control
Cc1ccc(NC(=O)OCCOc2ccc(Cl)cc2)cc1[N+](=O)[O-]	88 % of control
O=C(COc1ccccc1)N/N=C/c1cccc([N+](=O)[O-])c1	89 % of control
CC/C=C(\CC)CO	100 % of control
CCOC(=O)c1cc(=O)[nH]c2ccc(OC)cc12	104 % of control
Cc1cc(C)c(C(=O)c2ccccc2-c2ccccc2C(=O)c2c(C)cc(C)cc2C)c(C)c1	89 % of control
O=C(/C=C/c1ccccc1Cl)c1ccccc1[N+](=O)[O-]	94 % of control
CCCCCCCC(=O)Nc1ccc(-n2c(=O)cc(C)n2C)cc1	88 % of control
O=C1CCNC(=O)N1	98 % of control
O=[N+]([O-])c1ccc2nc(CC(O)(C(F)(F)F)C(F)(F)F)ccc2c1	110 % of control
CCOC(=O)Cc1cccc(CC(O)(c2ccccc2)c2ccccc2)n1	98 % of control
CN(C)CC(=O)Nc1cc(Cl)ccc1Oc1ccc(Cl)cc1	100 % of control
CCOC(=O)C12CC=CC(CCC1)/C2=N\Nc1ccccc1 (stereo unspecified)	103 % of control
COc1ccc(OC)c(NC(=O)NNc2ccc([N+](=O)[O-])cc2[N+](=O)[O-])c1	91 % of control
NC(N)=Nc1ccc(C(=O)Oc2ccc([N+](=O)[O-])cc2)cc1	102 % of control
O=C1c2ccccc2C(=O)c2c1ccc(O)c2O	97 % of control
COc1cc(OC)c(NC(=O)NC(C)C)cc1Cl	96 % of control
O=C(CCl)Nc1cccc(Cl)c1	95 % of control
NCCc1c[nH]c2ccccc12	95 % of control
COc1ccc(OC)c(C)c1	107 % of control
C=CCNC(=S)N/N=C\c1cc(OC)c(OC)c(OC)c1	97 % of control
C=CCNC(=O)/C(=C\c1ccccc1)NC(C)=O	98 % of control
CC(=O)NC(C(=O)O)C(C)c1c[nH]c2ccccc12 (stereo unspecified)	96 % of control
O=c1c(O)c(-c2cc(O)c(O)c(O)c2)oc2cc(O)cc(O)c12	95 % of control
c1ccc(-c2cc(-c3ccccc3)on2)cc1	94 % of control
COC1OC(COS(C)(=O)=O)C(OS(C)(=O)=O)C(OS(C)(=O)=O)C1OS(C)(=O)=O (stereo unspecified)	101 % of control
CN(C)CCc1ccc(O)cc1	102 % of control
Clc1ccc(COc2ccc(Cl)cc2Cn2ccnc2)c(Cl)c1	95 % of control
CC1(C)CCC2(CC1)CC(=O)OC2=O	105 % of control
O=[N+]([O-])c1cc(Cl)ccc1NC(Nc1ccc(Cl)cc1[N+](=O)[O-])C(Cl)(Cl)Cl	106 % of control
O=C(O)c1ccc(C(=O)O)c2c(C(=O)O)ccc(C(=O)O)c12	90 % of control
CCOC(=O)c1c(C)csc1NC(C)=O	97 % of control
CCCCCCCCCCCCCCCCCCNC(=O)Nc1ccc(C)c(C)c1	105 % of control
CCOC/C=C\C1CCCC1	102 % of control
COC(=O)C(=[N+]=[N-])C(=O)OC	93 % of control
NC(=O)NC1CCCCCC1	109 % of control
CC1(C)NC(=O)N(Br)C1=O	89 % of control
O=C(c1ccccc1)C(Br)C(Br)c1ccccc1 (stereo unspecified)	106 % of control
COC(=O)[C@]1(C)CCC[C@]2(C)[C@H]3CC4OO[C@@]3(CC[C@H]21)[C@H]1O[C@@]41C(C)C	101 % of control
c1cc2nc(c1)CSCCCCCCCSC2	90 % of control
CC(=O)Nc1ccc2c(c1)Cc1ccccc1-2	95 % of control
Cc1cc2nc(Cc3nc4cc(C)c(C)cc4[nH]3)[nH]c2cc1C	88 % of control
O=C(O)C1CCC(=O)N1C(=O)OCc1ccccc1 (stereo unspecified)	92 % of control
Cc1c[n+]([O-])cc(=O)[nH]1	97 % of control
CC1(C)C=C(Cc2ccccc2)C(=O)c2ccccc21	97 % of control
C=CCOc1c(C)cc(C)cc1/C=C/C	89 % of control

###

Tested on: CD2F1 mice, L1210 leukemia ip, survival T/C
Experiment Summary: NCI In Vivo Anticancer Drug Screen. Data for tumor model L1210 Leukemia (intraperitoneal) in CD2F1 (CDF1) mice
Condition: endpoint: mean survival time; dose: 50.0 mg/kg/injection; schedule: Q01DX009 (ip); vehicle: saline with Tween-80; higher = longer survival
Toxic doses and inconclusive results are not listed.
Each entry below carries its reported T/C.

Compound	T/C
O=C(Nc1ccc(F)cc1)c1cccc(C(=O)Nc2ccc(F)cc2)c1	94 % of control
CCCCOc1ccc(NC(=O)CCl)cc1	96 % of control
Brc1cscc1-c1cccc2ccccc12	95 % of control
O=C1C2=C(CCCC2)CN1c1ccccc1	98 % of control
O=c1[nH]c(=O)c2ccccc2o1	98 % of control
C=CCOCC(O)CNc1ccccc1 (centres undefined)	101 % of control
CCCC(C(=O)O)C1=CCCC1 (centres undefined)	102 % of control
Cc1ccccc1N=C=S	106 % of control
OCC1OC(c2ccccc2)OC(CO)C(O)C1O (centres undefined)	96 % of control
O=C(O)CCC(=O)c1ccc(Cl)c(Cl)c1	102 % of control
O=C(O)CCCCCCCCC(=O)O (tested in a mixture with another compound)	100 % of control
c1ccc(COC2CN3CCC2CC3)cc1 (centres undefined)	100 % of control
C#CCCCN1CCC2(CC1)C(=O)N(C(=O)N(C)C)CN2c1ccccc1	96 % of control
CSC(Cl)=C(Cl)Cl	95 % of control
O=c1c(O)c(-c2cc(O)c(O)c(O)c2)oc2cc(O)cc(O)c12	91 % of control
CCCC/C=C/C(C)(C)O	107 % of control
Cc1cc(O)c(C)c(C)c1Cl	102 % of control
CC(Cc1ccccc1)NC=O (centres undefined)	97 % of control
COc1ccc(C(C)C(C)=O)cc1 (centres undefined)	95 % of control

###

Each entry below carries its reported T/C.
System: CD2F1 mice, L1210 leukemia ip, survival T/C
Experiment Summary: NCI In Vivo Anticancer Drug Screen. Data for tumor model L1210 Leukemia (intraperitoneal) in CD2F1 (CDF1) mice
Condition: endpoint: mean survival time; dose: 6.25 mg/kg/injection; schedule: Q04DX003 (ip); vehicle: saline with Tween-80; higher = longer survival
Toxic doses and inconclusive results are not listed.
Property Name: T/C

Compound	Property Name	Measurement
Cc1ccccc1C(C)NC1=NCCO1 (stereo unspecified)	T/C	96 % of control
Nc1ccc2ccccc2c1N=Nc1ccc(C(O)C(N)CO)cc1 (stereo unspecified)	T/C	100 % of control
CCCCOC(=O)c1ccccc1C(=O)O.CCCCOC(=O)c1ccccc1C(=O)O.[Cu+2]	T/C	91 % of control
CCCCC(CC)C(=O)[O][Sn]([CH2]CCC)([CH2]CCC)[O]C(=O)C(CC)CCCC (stereo unspecified)	T/C	105 % of control
NNC(=S)NC1CC2C=CC1C2 (stereo unspecified)	T/C	95 % of control
O=[As](O)(CC(O)COc1ccccc1)c1cccc(Cl)c1 (stereo unspecified)	T/C	103 % of control
